molecular target: BACE 1 (Beta Secretase enzyme) (Homo sapiens, UniProt P56817); assay: In vitro enzymatic BACE FRET assay; assay type: biochemical; details: IC50 range symbols, Table 1; read-out: BACE 1 FRET assay
Sequence (P56817 46-501, species assumed): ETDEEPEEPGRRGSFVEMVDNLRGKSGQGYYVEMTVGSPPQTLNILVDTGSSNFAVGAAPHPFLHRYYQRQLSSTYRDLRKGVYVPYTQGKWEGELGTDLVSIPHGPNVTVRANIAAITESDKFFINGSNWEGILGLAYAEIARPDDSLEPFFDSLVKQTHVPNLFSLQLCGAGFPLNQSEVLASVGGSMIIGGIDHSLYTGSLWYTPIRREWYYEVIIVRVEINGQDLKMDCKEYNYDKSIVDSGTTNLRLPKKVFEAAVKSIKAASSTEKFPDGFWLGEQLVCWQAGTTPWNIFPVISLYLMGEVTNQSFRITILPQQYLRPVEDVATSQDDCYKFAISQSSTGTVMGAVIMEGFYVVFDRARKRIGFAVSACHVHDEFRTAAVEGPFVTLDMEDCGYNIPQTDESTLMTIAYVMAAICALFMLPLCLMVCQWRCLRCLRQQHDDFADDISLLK
pIC50: −log10 of the molar value.
observed-property: pIC50

Need pIC50 for each of these compounds.
1. COc1ccccc1[C@@H](C)NC(=O)C(C)Cc1cc2cc(-c3ccccc3C)ccc2nc1N (stereo partly drawn) [Example 129]
2. Cc1ncccc1-c1ccc2nc(N)c(CCC(=O)NCC3CCCCC3)cc2c1
3. CC(Cc1cc2cc(-c3ccccc3Cl)ccc2nc1N)C(=O)NC1CCOC2(CCC2)C1 (stereo not drawn)

A:
1. > 6.30
2. 6.00 to 6.30
3. > 6.30

Batch of 6 compounds: report pIC50 for each.
1. Cc1ccccc1-c1ccc2nc(N)c(CCCNC(=O)C3CCCCC3)cc2c1
2. CC(Cc1cc2cc(-c3ccccc3CN(C)C)ccc2nc1N)C(=O)NCC1CCCCC1 (stereo not drawn)
3. Nc1nc2ccc(-c3cscn3)cc2cc1CCC(=O)NCC1CCCCC1
4. CCC(Cc1cc2cc(-c3ccccc3C)ccc2nc1N)C(=O)Nc1ccccc1F (stereo not drawn)
5. CC(Cc1cc2cc(-c3ncccc3CCN(C)C)ccc2nc1N)C(=O)NCCC(C)(C)C (stereo not drawn)
6. Cc1ccccc1-c1ccc2nc(N)c(CC(C)C(=O)N[C@H](C)C3CCCCC3)cc2c1 (stereo partly drawn)

A:
1: > 6.30; 2: > 6.30; 3: 5.30 to 6.00; 4: > 6.30; 5: > 6.30; 6: > 6.30

----------
Target: UniProtKB P56817
Experiment: In vitro enzymatic BACE FRET assay
Assay type: biochemical
Details: IC50 range symbols, Table 1; read-out: BACE 1 FRET assay
Method: In Vitro Enzymatic BACE FRET (Fluorescence Resonance Energy Transfer) Assay (Enzyme Assay Data in Table 1) The assay buffer used in this screen is 0.05 M acetate, pH 4.2, 10% DMSO final, 100 uM genapol (which is a nonionic detergent, below its Critical Micelle Concentration). […] The FRET assay is terminated with by addition of Tris buffer, which raises the pH to neutrality, and the fluorescence is determined. […]
observed-property: IC50

I have 8 compounds here; please give me IC50 for each one.
1. Cc1cccnc1-c1ccc2nc(N)c(CC(C)C(=O)NCCC3CCCO3)cc2c1 (centres unmarked)
2. Cc1cccc(C(=O)N2CCCC2)c1-c1ccc2nc(N)c(CC(C)C(=O)NCc3ccccn3)cc2c1 (centres unmarked)
3. Cc1ccccc1-c1cc2cc(CCC(=O)NCCC(C)(C)C)c(N)nc2cn1
4. Cc1ccccc1-c1ccc2nc(N)c(CCC(=O)N3CCC(F)(F)C3)cc2c1
5. CCc1ccccc1-c1ccc2nc(N)c(CCC(=O)NCC3CCCCC3)cc2c1
6. Cc1ccc(-c2ccc3nc(N)c(CC(C)C(=O)NCC4CCCCC4)cc3c2)c(F)n1 (centres unmarked)
7. CC(Cc1cc2cc([C@H]3C[C@H]3C)ccc2nc1N)C(=O)NCCC(C)(C)C (some centres unmarked)
8. Cc1ccccc1-c1ccc2nc(N)c(C[C@@H](C)C(=O)NCc3ccncn3)cc2c1

A:
["500 to 1000 nM", "< 500 nM", "< 500 nM", "1000 to 5000 nM", "< 500 nM", "1000 to 5000 nM", "500 to 1000 nM", "< 500 nM"]

For the 3 compounds below, give their IC50 values.
1. Cc1ccccc1-c1ccc2nc(N)c(CC(C)C(=O)NCc3cnn(C)c3)cc2c1 (centres unmarked)
2. Nc1nc2ccc(-c3ccc(F)cc3)cc2cc1CCC(=O)NCC1CCCCC1
3. Cc1ccccc1-c1cc2cc(CC(C)C(=O)NCc3ccccc3)c(N)nc2cn1 (centres unmarked)

A:
1: < 500 nM; 2: < 500 nM; 3: < 500 nM
